# Test system: RARg homodimer (NR concentration 270 nM)
# Assay remarks: PBM binding z-score (relative to random genomic background probes); higher = stronger binding; sequences stand for … in GC…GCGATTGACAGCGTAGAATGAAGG
Given measured PBM binding z-score, output class 1 if it is greater than or equal to 0.9 and class 0 if not.

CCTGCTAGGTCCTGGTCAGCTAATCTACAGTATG class 0

Inquiry: # bool: PBM binding z-score of `AGTACGAGGGCACGCTGAGTTGATAGCAGAGTAG` >= 0.9
Reply text: class 1

Inquiry: # bool: PBM binding z-score of `GGAACGAGGGCCTTCGAGTTGATAGCATGGCGAT` >= 0.9
Reply text: class 0

Inquiry: # bool: PBM binding z-score of `TGAATGAGGTGATAAGATCAGGGAACGTTGCAAA` >= 0.9
Reply text: class 0

Inquiry: # bool: PBM binding z-score of `GCTGCTAGGTCAGATTGGTCAGCTAACGGGTACG` >= 0.9
Reply text: class 1

Inquiry: # bool: PBM binding z-score of `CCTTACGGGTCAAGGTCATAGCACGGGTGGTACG` >= 0.9
Reply text: class 1

The origin of these recorded values is the supplement of paper PMC6555819.
